// IC50 lookup, one value per entry
- Test system: HeLa
- Run description: Anticancer activity against human HeLa cells assessed as reduction in cell growth incubated for 48 hrs by MTT assay
- Assay type: functional, cell-based
Only the number, expressed in µM, is required.

Examples with answers:
c1ccc(-c2nn(-c3ccccc3)cc2-c2nc3ccccc3[nH]2)cc1: 1.55
O=Cc1cn(-c2ccccc2)nc1-c1ccc(F)cc1: 16.6

--- query ---
Answer with IC50 of Cc1cc2nc(-c3cn(-c4ccccc4)nc3-c3ccc(F)cc3)[nH]c2cc1C measured for HeLa.
10.2

---

- System: A549
- Run description: Anticancer activity against human A549 cells assessed as reduction in cell growth incubated for 48 hrs by MTT assay
- Type: functional, cell-based
- Experimental setup: A549, 48 h
Property: pIC50
Notebook: values listed as pIC50 are -log10 of the concentration (mol/L).

COc1ccc(-c2nn(-c3ccccc3)cc2-c2nc3cc(Cl)ccc3[nH]2)cc1: 5.50
Cc1ccc2[nH]c(-c3cn(-c4ccccc4)nc3-c3ccc(Cl)cc3)nc2c1: 5.33
Fc1ccc(-c2nn(-c3ccccc3)cc2-c2nc3cc(Br)ccc3[nH]2)cc1: 5.23

Hello, please tell me recorded pIC50 for this one: Fc1ccc(-c2nn(-c3ccccc3)cc2-c2nc3cc(C(F)(F)F)ccc3[nH]2)cc1
5.63

Hello, please tell me recorded pIC50 for this one: Clc1ccc2[nH]c(-c3cn(-c4ccccc4)nc3-c3ccccc3)nc2c1
5.63

Hello, please tell me recorded pIC50 for this one: COc1ccc(-c2nn(-c3ccccc3)cc2-c2nc3cc(OC)ccc3[nH]2)cc1
4.64

Hello, please tell me recorded pIC50 for this one: COc1ccc2[nH]c(-c3cn(-c4ccccc4)nc3-c3ccccc3)nc2c1
5.91

Hello, please tell me recorded pIC50 for this one: Clc1ccc(-c2nn(-c3ccccc3)cc2-c2nc3ccccc3[nH]2)cc1
5.22

Hello, please tell me recorded pIC50 for this one: Cc1cc2nc(-c3cn(-c4ccccc4)nc3-c3ccc(Cl)cc3)[nH]c2cc1C
4.75

Hello, please tell me recorded pIC50 for this one: Clc1ccc(-c2nn(-c3ccccc3)cc2-c2nc3cc(Cl)ccc3[nH]2)cc1
5.87

---

- Test system: A549
- Run description: Anticancer activity against human A549 cells assessed as reduction in cell growth incubated for 48 hrs by MTT assay
- Assay type: functional, cell-based
- Experimental setup: A549, 48 h
Property: pIC50
Notebook: values listed as pIC50 are -log10 of the concentration (mol/L).

Examples with answers:
COc1ccc2[nH]c(-c3cn(-c4ccccc4)nc3-c3ccc(Cl)cc3)nc2c1: 5.62
FC(F)(F)c1ccc2[nH]c(-c3cn(-c4ccccc4)nc3-c3ccc(Cl)cc3)nc2c1: 5.47
O=Cc1cn(-c2ccccc2)nc1-c1ccc(F)cc1: 5.06
FC(F)(F)c1ccc2[nH]c(-c3cn(-c4ccccc4)nc3-c3ccccc3)nc2c1: 5.23
Clc1ccc(-c2nn(-c3ccccc3)cc2-c2nc3cc(Cl)c(Cl)cc3[nH]2)cc1: 4.72
c1ccc(-c2nn(-c3ccccc3)cc2-c2nc3ccccc3[nH]2)cc1: 5.57
COc1ccc(-c2nn(-c3ccccc3)cc2-c2nc3cc(C(F)(F)F)ccc3[nH]2)cc1: 5.32
COc1ccc(-c2nn(-c3ccccc3)cc2-c2nc3cc(C)c(C)cc3[nH]2)cc1: 5.23
Fc1ccc(-c2nn(-c3ccccc3)cc2-c2nc3cc(Cl)c(Cl)cc3[nH]2)cc1: 4.80
Brc1ccc2[nH]c(-c3cn(-c4ccccc4)nc3-c3ccccc3)nc2c1: 5.74

Hello, please tell me recorded pIC50 for this one: COc1ccc(-c2nn(-c3ccccc3)cc2-c2nc3cc(Br)ccc3[nH]2)cc1
5.20

Hello, please tell me recorded pIC50 for this one: COc1ccc(-c2nn(-c3ccccc3)cc2-c2nc3ccccc3[nH]2)cc1
5.63

Hello, please tell me recorded pIC50 for this one: Fc1ccc(-c2nn(-c3ccccc3)cc2-c2nc3ccccc3[nH]2)cc1
5.82

Hello, please tell me recorded pIC50 for this one: COc1ccc2[nH]c(-c3cn(-c4ccccc4)nc3-c3ccc(F)cc3)nc2c1
5.71

Hello, please tell me recorded pIC50 for this one: Cc1ccc2[nH]c(-c3cn(-c4ccccc4)nc3-c3ccc(F)cc3)nc2c1
5.84

Hello, please tell me recorded pIC50 for this one: COc1ccc(-c2nn(-c3ccccc3)cc2-c2nc3cc(F)ccc3[nH]2)cc1
5.70

Hello, please tell me recorded pIC50 for this one: Clc1ccc(-c2nn(-c3ccccc3)cc2-c2nc3cc4ccccc4cc3[nH]2)cc1
5.11

Hello, please tell me recorded pIC50 for this one: COc1ccc(-c2nn(-c3ccccc3)cc2-c2nc3cc(Cl)c(Cl)cc3[nH]2)cc1
5.13

Hello, please tell me recorded pIC50 for this one: Clc1ccc(-c2nn(-c3ccccc3)cc2-c2nc3cc(Br)ccc3[nH]2)cc1
5.66

---

- Test system: HeLa
- Run description: Anticancer activity against human HeLa cells assessed as reduction in cell growth incubated for 48 hrs by MTT assay
- Format: functional, cell-based
pIC50: −log10 of the molar value.
Where pIC50 equals or exceeds 5, the correct label is Condition met; where it does not, the label is Condition not met.

As a guide, the following entries are already answered.
O=Cc1cn(-c2ccccc2)nc1-c1ccc(Cl)cc1: Condition not met
COc1ccc2[nH]c(-c3cn(-c4ccccc4)nc3-c3ccc(Cl)cc3)nc2c1: Condition met

--- query ---
In plain terms: is recorded pIC50 at least 5 for Fc1ccc(-c2nn(-c3ccccc3)cc2-c2nc3cc(C(F)(F)F)ccc3[nH]2)cc1 ?
Condition met

---

- Tested on: HeLa
- Run description: Anticancer activity against human HeLa cells assessed as reduction in cell growth incubated for 48 hrs by MTT assay
- Format: functional, cell-based
Property: IC50 (µM)
Only the number, expressed in µM, is required.

Examples with answers:
O=c1[nH]cc(F)c(=O)[nH]1 [FLUOROURACIL]: 4.6
Fc1ccc(-c2nn(-c3ccccc3)cc2-c2nc3cc(F)ccc3[nH]2)cc1: 1.57
COc1ccc2[nH]c(-c3cn(-c4ccccc4)nc3-c3ccccc3)nc2c1: 2.87
Fc1ccc(-c2nn(-c3ccccc3)cc2-c2nc3cc(Br)ccc3[nH]2)cc1: 4.94
COc1ccc(-c2nn(-c3ccccc3)cc2-c2nc3cc(F)ccc3[nH]2)cc1: 1.74

--- query ---
Hello, please tell me recorded IC50 for this one: Brc1ccc2[nH]c(-c3cn(-c4ccccc4)nc3-c3ccccc3)nc2c1
1.76
